We begin with a simple list: items and their reported Accumulation.
- Measured Target: Melanocortin receptor 4 (Homo sapiens)
- Sequence (P32245 whole entry): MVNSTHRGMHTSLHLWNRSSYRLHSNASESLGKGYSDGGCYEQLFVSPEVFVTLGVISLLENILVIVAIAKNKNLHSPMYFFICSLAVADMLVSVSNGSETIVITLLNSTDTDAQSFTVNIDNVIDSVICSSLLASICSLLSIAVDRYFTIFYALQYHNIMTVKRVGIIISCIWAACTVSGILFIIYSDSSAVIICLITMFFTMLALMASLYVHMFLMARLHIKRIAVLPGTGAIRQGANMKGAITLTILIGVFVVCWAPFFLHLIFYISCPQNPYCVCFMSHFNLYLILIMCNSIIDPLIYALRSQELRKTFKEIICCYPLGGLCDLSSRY
- Condition Summary: at 10 µM
Express your answer in %, writing the number without its unit.

[[record]]
compound_string = "CC[C@@H]1CN[C@H](C(=O)N[C@H](Cc2ccc(F)cc2)C(=O)N2CCC(C(=O)NC(C)(C)C)(C3CCCCC3)CC2)CN1"
measurement_name = "Accumulation"
value_observed = 69

[[record]]
compound_string = "C[C@H]1CN[C@H](C(=O)N[C@H](Cc2ccc(F)cc2)C(=O)N2CCC(C(=O)NC(C)(C)C)(C3CCCCC3)CC2)CN1"
measurement_name = "Accumulation"
value_observed = 79

[[record]]
compound_string = "CC(C)(C)NC(=O)C1(C2CCCCC2)CCN(C(=O)[C@@H](Cc2ccc(F)cc2)NC(=O)[C@@H]2CNC3(CC3)CN2)CC1"
measurement_name = "Accumulation"
value_observed = 53


Ask: Param readout= Accumulation; system= Melanocortin receptor 4 (Homo sapiens); entry= `CC(C)(C)NC(=O)C1(C2CCCCC2)CCN(C(=O)[C@@H](Cc2ccc(F)cc2)NC(=O)[C@@H]2CN[C@H](C3CC3)CN2)CC1.CC(F)(F)C(=O)O` ; returns value.
Reply: 67

###

- Measured Target: Melanocortin receptor 4 (Homo sapiens)
- Method: Inhibitory concentration to displace [125I]NDP-alpha-MSH from human melanocortin 4 receptor expressed in CHO cells; Control 19 nM
Measurement Name: pIC50
# pIC50 = -log10(concentration in molar units)

[[record]]
compound_string = "CC(C)(C)NC(=O)C1(C2CCCCC2)CCN(C(=O)[C@@H](Cc2ccc(F)cc2)NC(=O)[C@@H]2CN[C@H](C(C)(C)C)CN2)CC1"
value_observed = 7.54

[[record]]
compound_string = "CC[C@H]1CN[C@H](C(=O)N[C@H](Cc2ccc(F)cc2)C(=O)N2CCC(C(=O)NC(C)(C)C)(C3CCCCC3)CC2)CN1"
value_observed = 8.52


Pending compound:
Ask: Param item = `CC(C)(C)NC(=O)C1(C2CCCCC2)CCN(C(=O)[C@@H](Cc2ccc(F)cc2)NC(=O)[C@@H]2CN[C@H](C3CC3)CN2)CC1.CC(F)(F)C(=O)O` ; retrieve measured pIC50.
Reply: 7.60

###

- Measured Target: Melanocortin receptor (M3 and M4) (Homo sapiens) (UniProt P32245+P41968)
- Method: Selectivity for human melanocortin 3 receptor over melanocortin 4 receptor expressed in CHO cells; control 1 nM
- Assay type: cell-based
Measurement Name: Selectivity
Answer as a number with no unit attached.

Example cases with answers are listed next.
[[record]]
compound = "CC(C)C1CNC[C@@H](C(=O)N[C@H](Cc2ccc(F)cc2)C(=O)N2CCC(C(=O)NC(C)(C)C)(C3CCCCC3)CC2)N1 (stereo not given in full)"
measurement_name = "Selectivity"
value_observed = 81

[[record]]
compound = "CC[C@@H]1CN[C@H](C(=O)N[C@H](Cc2ccc(F)cc2)C(=O)N2CCC(C(=O)NC(C)(C)C)(C3CCCCC3)CC2)CN1C"
measurement_name = "Selectivity"
value_observed = 36

[[record]]
compound = "CC(C)(C)NC(=O)C1(C2CCCCC2)CCN(C(=O)[C@@H](Cc2ccc(F)cc2)NC(=O)[C@@H]2CN[C@@H](C(C)(C)C)CN2)CC1"
measurement_name = "Selectivity"
value_observed = 116

[[record]]
compound = "CC(C)(C)NC(=O)C1(C2CCCCC2)CCN(C(=O)[C@@H](Cc2ccc(F)cc2)NC(=O)[C@@H]2CN[C@@H](C3(C)CC3)CN2)CC1"
measurement_name = "Selectivity"
value_observed = 99

[[record]]
compound = "CC(C)(C)NC(=O)C1(C2CCCCC2)CCN(C(=O)[C@@H](Cc2ccc(F)cc2)NC(=O)[C@@H]2CN[C@H](C3CC3)CN2)CC1.CC(F)(F)C(=O)O"
measurement_name = "Selectivity"
value_observed = 42

[[record]]
compound = "C[C@H]1CN[C@H](C(=O)N[C@H](Cc2ccc(F)cc2)C(=O)N2CCC(C(=O)NC(C)(C)C)(C3CCCCC3)CC2)CN1"
measurement_name = "Selectivity"
value_observed = 86

[[record]]
compound = "CC(C)[C@@H]1CN[C@H](C(=O)N[C@H](Cc2ccc(F)cc2)C(=O)N2CCC(C(=O)NC(C)(C)C)(C3CCCCC3)CC2)CN1"
measurement_name = "Selectivity"
value_observed = 61

[[record]]
compound = "CC[C@@H]1CN[C@H](C(=O)N[C@H](Cc2ccc(F)cc2)C(=O)N2CCC(C(=O)NC(C)(C)C)(C3CCCCC3)CC2)CN1"
measurement_name = "Selectivity"
value_observed = 59


Ask: Need Selectivity of `CC(C)[C@H]1CN[C@H](C(=O)N[C@H](Cc2ccc(F)cc2)C(=O)N2CCC(C(=O)NC(C)(C)C)(C3CCCCC3)CC2)CN1` , thanks.
Reply: 140

Ask: Entry under review: `CC[C@H]1CN[C@H](C(=O)N[C@H](Cc2ccc(F)cc2)C(=O)N2CCC(C(=O)NC(C)(C)C)(C3CCCCC3)CC2)CN1C` . Reported Selectivity?
Reply: 116

Ask: Quick check: Selectivity of `CC(C)(C)NC(=O)C1(C2CCCCC2)CCN(C(=O)[C@@H](Cc2ccc(F)cc2)NC(=O)[C@@H]2CNC3(CC3)CN2)CC1` ?
Reply: 42

Ask: Which value of Selectivity has been reported for `CC[C@H]1CN[C@H](C(=O)N[C@H](Cc2ccc(F)cc2)C(=O)N2CCC(C(=O)NC(C)(C)C)(C3CCCCC3)CC2)CN1` in the records?
Reply: 152

Ask: What value of Selectivity has been recorded for this entry: `CC(C)(C)NC(=O)C1(C2CCCCC2)CCN(C(=O)[C@@H](Cc2ccc(F)cc2)NC(=O)[C@@H]2CN[C@@H](C3CC3)CN2)CC1`
Reply: 119

Ask: Tell me the measured Selectivity of `CC(C)(C)NC(=O)C1(C2CCCCC2)CCN(C(=O)[C@@H](Cc2ccc(F)cc2)NC(=O)[C@@H]2CN[C@H](C3(C)CC3)CN2)CC1` , please.
Reply: 49

Ask: Could you share which Selectivity value was measured for `CC(C)(C)NC(=O)C1(C2CCCCC2)CCN(C(=O)[C@@H](Cc2ccc(F)cc2)NC(=O)[C@@H]2CN[C@H](C(C)(C)C)CN2)CC1` ?
Reply: 48
